Hello, the source for this data is patent US12441710B2, in case you need it.

Can you tell me efflux ratio at 2 h, 3 μM for the items I'm about to list?
# Tested on: MDR1
# method_description: MDCK-MDR1 permeability assay
# Format: in vitro ADME
# particulars: dog, Papp (B→A) divided by Papp (A→B), 3 μM test compound, read-out: Efflux ratio (ER)

Sample records with efflux ratio at 2 h, 3 μM:
{"compound": "Cc1cccc(C2CCC(OCC3CN(c4ccccn4)CC[C@@H]3NS(C)(=O)=O)CC2)c1 (stereo partly drawn) [Compound 16]", "efflux ratio at 2 h, 3 μM": "> 7.9"}
{"compound": "CS(=O)(=O)N[C@H]1CCN(c2cccc(F)n2)CC1COC1CCC(c2ccccc2)CC1 (stereo partly drawn) [Compound 23]", "efflux ratio at 2 h, 3 μM": "> 5.4"}

Could you now consider this next compound?
Input line: Value lookup for efflux ratio at 2 h, 3 μM; key = CS(=O)(=O)N[C@H]1CCN(c2ncccc2C(F)(F)F)CC1COC1CCC(c2ccccc2)CC1 (stereo partly drawn) [Compound 28]
Output line: > 3.4
